- Assay system: viral α2,3-sialyltransferase (Myxoma virus)
- Format: biochemical
- Test context: acceptor 2.7 mM; relative rate of sialic acid transfer, LacNAc-O-gr = 100; 37° C., pH 6.1
Returns: string. Value is y if measured Relative Rate (2.7 mM) is below 20, and n if it is greater than or equal to it.

Answered examples (3):
{"columns": ["Compound", "Category"],
 "data": [
  ["CC(=O)N[C@H]1C(O)O[C@H](CO)[C@@H](O[C@@H]2O[C@H](CO)[C@H](O)[C@H](O)[C@H]2O)[C@@H]1O (stereo partly drawn) [LacNAc-OH]", "n"],
  ["COC(=O)CCCCCCCCOC1OC(CO)C(O)C(O)C1NC(C)=O (stereo not drawn) [GlcNAc-O-gr]", "y"],
  ["CCCCCCCCO[C@@H]1O[C@H](CO)[C@@H](O)[C@H](O)[C@H]1O [Glc-O-octyl]", "y"]
]}

Is Relative Rate (2.7 mM) strictly under 20 for the entry COC(=O)CCCCCCCCO[C@@H]1O[C@H](CO)[C@@H](O[C@@H]2O[C@H](CO)[C@H](O)[C@H](O)[C@H]2O)[C@H](O[C@@H]2O[C@@H](C)[C@@H](O)[C@@H](O)[C@@H]2O)[C@H]1NC(C)=O [Le^x-gr] ?
n

Is Relative Rate (2.7 mM) strictly under 20 for the entry COC(=O)CCCCCCCCOC1OC(CO)C(OC2OC(CO)C(O)C(OC3OC(CO)C(O)C(O)C3O)C2O)C(O)C1NC(C)=O (stereo not drawn) [Galα(1→3)-lacNAc-O-gr] ?
y

Is Relative Rate (2.7 mM) strictly under 20 for the entry CCCCCCCCO[C@@H]1O[C@H](CO)[C@@H](O[C@@H]2O[C@H](C(C)(C)O)[C@H](O)[C@H](O)[C@H]2O)[C@H](O)[C@H]1NC(C)=O [6′,6′-C-dimethyl-LacNAc-O-octyl] ?
y

Is Relative Rate (2.7 mM) strictly under 20 for the entry COC(=O)CCCCCCCCO[C@@H]1O[C@H](CO)[C@@H](O[C@@H]2O[C@H](CO)[C@H](O)[C@H](O)[C@H]2O)[C@H](O)[C@H]1O [Lactose-O-gr] ?
n

Is Relative Rate (2.7 mM) strictly under 20 for the entry CCCCCCCCO[C@@H]1O[C@H](CO)[C@@H](O[C@@H]2O[C@H](CO)[C@H](O)[C@](C)(O)[C@H]2O)[C@H](O)[C@H]1O [3′-C-methyl-lactose-octyl] ?
y

Is Relative Rate (2.7 mM) strictly under 20 for the entry COC(=O)CCCCCCCCO[C@@H]1O[C@H](CO)[C@@H](O)[C@H](O[C@@H]2O[C@H](CO)[C@H](O)[C@H](O)[C@H]2O)[C@H]1NC(C)=O [Le^c-O-gr] ?
n

Is Relative Rate (2.7 mM) strictly under 20 for the entry COC(=O)CCCCCCCCO[C@H]1O[C@H](CO)[C@H](O)[C@H](O[C@@H]2O[C@H](CO)[C@H](O)[C@H](O)[C@H]2O)[C@H]1NC(C)=O [T-disaccharide-O-gr] ?
n

Is Relative Rate (2.7 mM) strictly under 20 for the entry COC(=O)CCCCCCCCO[C@@H]1O[C@H](CO)[C@@H](O[C@@H]2O[C@H](CO)[C@H](O[C@H]3O[C@H](CO)[C@H](O)[C@H](O)[C@H]3O)[C@H](O)[C@H]2O)[C@H](O)[C@H]1O [Galα(1→4)-lactose-O-gr] ?
y
